System: HaCaT cells
Assay type: cell-based, human
Details: LDH release, 24 h, concentration not given
So I've got a bunch of compounds here, and I need their Cytotoxicity against HaCaT cells values.
Answers are plain numbers, in %.

compound: CN1C(=O)[C@](O)(Cc2cccc(O)c2)N(C)C(=O)[C@@H]1Cc1c[nH]c2cccc([N+](=O)[O-])c12 [Thaxtomin A]
measured_quantity: Cytotoxicity against HaCaT cells
result_number: 4
--
compound: OC1C(O)C(O)C(O)C(O)C1O (stereo not shown) [Inositol, cyclohexane-1,2,3,4,5,6-hexol]
measured_quantity: Cytotoxicity against HaCaT cells
result_number: 4

Batch lookup, Cytotoxicity against HaCaT cells per entry.
1. CCNc1nc(Cl)nc(NC(C)(C)C)n1 [Terbuthylazine]
2. O=C(O)c1c(Cl)ccc2cc(Cl)cnc12 [Quinclorac, 3,7-Dichloro-8-quinolinecarboxylic acid]
3. O=C(O)/C=C/c1ccccc1 [Trans-cinnamic acid, (E)-3-phenylprop-2-enoic acid]
4. Cc1ccc2c(c1)C(Nc1nc(N)nc(C(C)F)n1)C(C)C2 (stereo not shown) [Indaziflam]
5. CC(C)C1CCC(C(=O)N[C@H](Cc2ccccc2)C(=O)O)CC1 (stereo partly shown) [Nateglinide]
6. CCC1=C(C)CN(C(=O)NCCc2ccc(S(=O)(=O)NC(=O)NC3CCC(C)CC3)cc2)C1=O (stereo not shown) [Glimepiride]

1. 2
2. 6
3. 8
4. 4
5. 2
6. 6

###

System: B. mandrillaris trophozoites
Assay: Amoebicidal assay against B. mandrillaris trophozoites (Trypan blue)
Assay type: cell-based, Balamuthia mandrillaris
Settings: summary in discussion, concentration not given
Procedure: Amoebicidal assays were performed as previously described. Briefly, 5 × 10^5 amoebae (N. fowleri and B. mandrillaris cells) were incubated with drugs and/or solvents in 24-well plates in RPMI-1640. Amoebae were incubated with RPMI-1640 for negative controls while DMSO and ethanol were used as solvent control. […] The number of live cells (i.e., unstained) was counted using a haemocytometer to determine amoebicidal effects of various compounds. […]
measured_quantity: Amoebicidal activity against B. mandrillaris
Write your answer as a measured quantity: the number, then the unit.

molecule: CCC1=C(C)CN(C(=O)NCCc2ccc(S(=O)(=O)NC(=O)NC3CCC(C)CC3)cc2)C1=O (stereo not drawn) [Glimepiride]
measured_target: B. mandrillaris trophozoites
result: 54%

molecule: C[C@H]1O[C@H](O[C@H]2[C@H](O)[C@@H](O)[C@@H](O[C@H]3[C@H](O)[C@@H](O)C(O)O[C@@H]3CO)O[C@@H]2CO)[C@H](O)[C@@H](O)[C@@H]1N[C@H]1C=C(CO)[C@@H](O)[C@H](O)[C@H]1O (stereo partly drawn)
measured_target: B. mandrillaris trophozoites
result: 60%

molecule: Cc1ccc2c(c1)C(Nc1nc(N)nc(C(C)F)n1)C(C)C2 (stereo not drawn)
measured_target: B. mandrillaris trophozoites
result: 52%

molecule: N#Cc1c(Cl)cccc1Cl
measured_target: B. mandrillaris trophozoites
result: 60%

molecule: CCNc1nc(Cl)nc(NC(C)(C)C)n1
measured_target: B. mandrillaris trophozoites
result: 61%

Please find the next molecule below.
// Amoebicidal activity against B. mandrillaris lookup, molecule = CC(C)C1CCC(C(=O)N[C@H](Cc2ccccc2)C(=O)O)CC1 (stereo partly drawn) [Nateglinide] , result: 39%

The measured values listed here are drawn from paper PMC9220410.
